- systemName: T1, HSP70 (human HSP70; the antigen of the binning, humanization and variant binding assays) (human, UniProt P0DMV8 1-641, limits assumed)
- T1 construct: also called hu HSP70
- T1 sequence (P0DMV8 whole entry, change not shown): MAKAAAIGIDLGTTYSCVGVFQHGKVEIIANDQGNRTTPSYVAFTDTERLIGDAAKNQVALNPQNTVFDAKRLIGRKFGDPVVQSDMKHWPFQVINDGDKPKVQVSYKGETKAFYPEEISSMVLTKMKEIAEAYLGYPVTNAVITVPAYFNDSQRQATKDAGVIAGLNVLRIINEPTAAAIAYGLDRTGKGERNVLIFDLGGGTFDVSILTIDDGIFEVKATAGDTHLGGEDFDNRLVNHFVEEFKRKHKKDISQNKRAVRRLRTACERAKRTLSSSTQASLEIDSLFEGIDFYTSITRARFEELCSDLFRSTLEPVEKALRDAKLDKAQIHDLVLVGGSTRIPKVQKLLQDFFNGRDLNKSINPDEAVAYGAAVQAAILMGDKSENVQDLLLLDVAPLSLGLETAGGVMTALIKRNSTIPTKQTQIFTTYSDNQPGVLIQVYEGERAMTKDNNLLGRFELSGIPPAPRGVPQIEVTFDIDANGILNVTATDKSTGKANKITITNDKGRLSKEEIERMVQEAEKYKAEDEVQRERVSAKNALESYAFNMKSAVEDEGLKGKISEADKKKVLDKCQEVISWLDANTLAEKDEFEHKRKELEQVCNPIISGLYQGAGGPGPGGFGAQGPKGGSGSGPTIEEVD
- assayName: BLI, antibody on sensor
metricName: kon (M⁻¹ s⁻¹)

* h77A-25 (antibody, V domains shown) VH: QIQLVQSGPEVKKPGESVKVSCKASGYTFTNYGMNWVRQAPGKGLEWMGWINTYTGEPTYADDFKGRVTITRDTSASTAYMELSSLRSEDTAVYFCARYDHAMDYWGQGTSVTVSS VL: DIVMTQSPDSLAVSLGERATINCKSSQSLLNSGTRKNYLAWYQQKPGQSPKLLIYWTSTRESGVPDRFSGSGSGTDFTLTISSLQAEDVAVYYCKQSYTLYTFGGGTKLEIK | 47300
* h77A-5 (antibody, V domains shown) VH: QIQLVQSGAEVKKPGASVKVSCKASGYTFTNYGMNWVRQAPGQGLEWMGWINTYTGEPTYADDFKGRFTFTTDTSTSTAYMELRSLRSDDTAVYFCARYDHAMDYWGQGTLVTVSS VL: DIVMTQSPDSLAVSLGERATINCKSSQSLLNSGTRKNYLAWYQQKPGQSPKLLIYWTSTRESGVPDRFSGSGSGTDFTLTISSLQAEDVAVYYCKQSYTLYTFGGGTKLEIK | 51400
* h77A-7 (antibody, V domains shown) VH: QIQLVQSGAEVKKPGSSVKVSCKASGYTFTNYGMNWVRQAPGQGLEWMGWINTYTGEPTYADDFKGRFTFTADESTSTAYMELSSLRSEDTAVYFCARYDHAMDYWGQGTLVTVSS VL: DIVMTQSPDSLSVSLGERATINCKSSQSLLNSGTRKNYLAWYQQKPGQPPRLLIYWTSTRESGVPDRFSGSGSGTDFTLTINTLQAEDVAVYYCKQSYTLYTFGQGTKLEIK | 48700
* chimeric 77A with a human IgG4 Fc domain (antibody, V domains shown, also called Chimera IgG4; IgG4 Chimera) VH: QIQLVQSGPELKKPGETVKISCKASGYTFTNYGMNWVKQAPGKGLKWMGWINTYTGEPTYADDFKGRFAFSLETSATTAYLQINNLKNEDTATYFCARYDHAMDYWGQGTSVTVSS VL: DIVMSQSPSSLAVSAGEKVTMSCKSSQSLLNSGTRKNYLAWYQQKPGQSPKLLIYWTSTRESGVPDRFTGSGSGTDFTLTINSVQAEDLAVYYCKQSYTLYTFGGGTKLEIK | 71300
* h77A-13 (antibody, V domains shown) VH: QVQLQQSGPEVKKPGASVKISCKTSGYTFTNYGMNWVRQAPGQGLEWMGWINTYTGEPTYADDFKGRVTMTTDTSTSTAYLELTGLMSDDTAVYFCARYDHAMDYWGQGTTVTVSS VL: DVVMTQSPDSLAVSLGERVTINCKSSQSLLNSGTRKNYLAWYQQKPGQSPKLLIYWTSTRESGVPDRFSGSGSGTDFTLTISSLQAEDVAVYYCKQSYTLYTFGQGTKLEIK | 44700
